# reported logD; entries follow
# Procedure details: Distribution coefficient octanol/buffer (log P)
# Type: physicochemical
# Measurement context: 1-octanol/buffer, pH 2.0; read-out: Log P (pH 2.0)
Counter-ions that a name gives are not always drawn.
Experimental endpoint: logD

Compound	Experimental endpoint	Reported result
CC(C)(C)C(=O)OP(=O)(O)C(Cl)(Cl)P(=O)(O)OC(=O)C(C)(C)C [Pivalyl acid dianhydride (Ex. 7), disodium salt]	logD	-2
CC(=O)OP(=O)(O)C(Cl)(Cl)P(=O)(O)OC(C)=O [Compound 1, disodium salt]	logD	-1.4
CCCC(=O)OP(=O)(O)C(Cl)(Cl)P(=O)(O)OC(=O)CCC [Butanoic acid dianhydride (Ex. 7), disodium salt]	logD	-1.9
O=C(OP(=O)(O)C(Cl)(Cl)P(=O)(O)OC(=O)c1ccccc1)c1ccccc1 [Benzoe acid dianhydride (Ex. 7), disodium salt]	logD	-1.5

Hello, the source for this data is patent US6326363A, in case you need it.
